molecular target: glucagon receptor (human, UniProt P47871 26-477); experiment: cell-based or functional assay
Sequence (P47871 26-477): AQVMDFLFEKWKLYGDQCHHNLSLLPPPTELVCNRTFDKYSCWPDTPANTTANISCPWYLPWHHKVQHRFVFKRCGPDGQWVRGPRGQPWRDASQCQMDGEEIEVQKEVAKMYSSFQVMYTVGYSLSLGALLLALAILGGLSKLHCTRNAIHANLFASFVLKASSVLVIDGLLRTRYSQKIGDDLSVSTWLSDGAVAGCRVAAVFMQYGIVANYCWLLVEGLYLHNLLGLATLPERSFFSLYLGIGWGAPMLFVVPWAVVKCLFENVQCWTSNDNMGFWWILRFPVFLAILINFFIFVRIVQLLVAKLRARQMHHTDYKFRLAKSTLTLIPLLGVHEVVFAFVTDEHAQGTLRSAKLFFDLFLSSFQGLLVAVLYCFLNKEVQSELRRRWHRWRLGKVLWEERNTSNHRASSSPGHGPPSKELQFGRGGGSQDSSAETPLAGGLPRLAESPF
Non-standard residues stand in square brackets, D forms with d. No end group written: not given here. Aib = CC(C)(N)C(=O)O
value kind: percent in parentheses (not explained) (%)
Give a bare numeral; the unit % is implied.

Answered examples (4):
[[record]]
binder = "HSQGTFTSDYSKYLDEQAVRLFICWLLDT-NH2 (not fully specified; also: further groups not given here) [Glucagon Analog 87]"
value_unit = "%"
value_measured = 71

[[record]]
binder = "HSQGTFTSDKSKYLDEQAVRLFIC(PEG 40 kDa)WLLDT-NH2 (also: acylated amino acid at position 10, acyl group not given here) [Glucagon Analog 85]"
value_unit = "%"
value_measured = 16

[[record]]
binder = "HSQGTFTSDYSKYLDEQAVRLFICWLLDGGPSSGAPPPS-NH2 (not fully specified; also: further groups not given here) [Glucagon Analog 84]"
value_unit = "%"
value_measured = 14.4

[[record]]
binder = "HSQGTFTSDKSKYLDERAAQDFVC(PEG 40 kDa)WLLDT-NH2 (not fully specified (residue 10); also: Lys10 acylated, acyl group not given here) [Glucagon Analog 29]"
value_unit = "%"
value_measured = 74


Attention now shifts to the item below.
Query: Let me know recorded percent in parentheses (not explained) for HSQGTFTSDYSKYLD[Aib]KAVRLFICWLLDT-NH2 [Glucagon Analog 86] , thanks.
Result: 43
